// provenance: patent US8536173B2

Structures can show the parent of a compound that is named as a salt.
property-name: melting point (°C)
Give bare numbers, in °C.

>  <compound>
Cc1noc([C@]23CC4CC(C2)[C@H](NC(=O)N2CCN(c5ccc(N6CCN(S(=O)(=O)C7CC7)CC6)cn5)c5ccccc52)C(C4)C3)n1

>  <property-name>
melting point

>  <recorded-measurement>
135

$$$$

For every record below, what is its melting point?
1. NC[C@]12CC3CC(C1)[C@H](NC(=O)N1CCN(c4ccc(N5CCN(S(=O)(=O)C6CC6)CC5)cn4)c4ccccc41)C(C3)C2 (as salt: hydrochloride)
2. CC(C)(C)N1CCN(c2ccc(N3CCN(C(=O)N[C@H]4C5CC6CC4C[C@@](CNS(C)(=O)=O)(C6)C5)c4ccccc43)nc2)CC1 (as salt: hydrochloride)
3. CC(C)(C)N1CCN(c2ccc(N3CCN(C(=O)N[C@H]4C5CC6CC4C[C@@](NS(C)(=O)=O)(C6)C5)c4ccccc43)nc2)CC1

// result
197
252
165

====

For each record, write down the corresponding melting point.

Look over these answered cases.
>  <compound>
CONC(=O)[C@]12CC3CC(C1)[C@H](NC(=O)N1CCN(c4ccc(N5CCN(S(=O)(=O)C6CC6)CC5)cn4)c4ccccc41)C(C3)C2

>  <recorded-measurement>
125 to 163 °C

$$$$
>  <compound>
CC(C)(C)N1CCN(c2ccc(N3CCN(C(=O)N[C@H]4C5CC6CC4C[C@@](Cc4nn[nH]n4)(C6)C5)c4ccccc43)nc2)CC1

>  <recorded-measurement>
160 to 170 °C

$$$$
>  <compound>
NC(=O)C[C@]12CC3CC(C1)[C@H](NC(=O)N1CCN(c4ccc(N5CCN(S(=O)(=O)C6CC6)CC5)cn4)c4ccccc41)C(C3)C2

>  <recorded-measurement>
120 to 135 °C

$$$$

Attention now turns to another entry.
// query Fill blank: measured melting point of the compound CC(C)(C)N1CCN(c2ccc(N3CCN(C(=O)N[C@H]4C5CC6CC4C[C@@](C(O)C(F)(F)F)(C6)C5)c4ccccc43)nc2)CC1 (stereo partly shown) is ____.
// result 192 to 196 °C
